Measured values drawn from patent US20230408517A1 for this set.

Listed next: entries and their corresponding percent blocking.
molecular target: rSARS2-B.1.617.2 S aa16-1211 10+4x aa mut., C-His (SARS-CoV-2, UniProt P0DTC2 16-1211); test: flow cytometry, blocking of binding to hACE-2 cells
Give the quantity in %, number only.

Query: So what does the record say about percent blocking for 1035423 (antibody, V domains shown) VH: EVKLEESGGGLVQPGGSMKLSCTASGFTFSDAWMDWVRQSPEKGLEWVAEIRNKANNHATYYAESVKGRFTISRDDSKSSVYLQMNSLRAEDTGIYYCILFITYAMDYWGQGTSVTVSS VL: DIVLTQSQKFMSTSVGDRVSITCKASQNVRTAVAWYQQKPGQSPKALIYLASNRHTGVPDRFTGSGSGTDFTLTISNVQSEDLADYFCLQHWNYPLTFGSGTKLELK ?
Reply: 89.5

Query: So what does the record say about percent blocking for 1035755 (antibody, V domains shown) VH: EVQLQQSGAELVRPGALVKLSCKASGFNIKDYYMHWVKQRPEQGLEWIGWIDPENGNSIYDPKFQGKASITADTSSNTAYLQLSSLTSEDTAVYYCATPSATSYFDYWGQGTTLTVSS VL: QIVLTQSPAIMSASPGEKVTISCSASSSVSYMYWYQQKPGSSPKPWIYRTSNLASGVPARFSGSGSGTSYSLTISSMEAEDAATYYCQQYHSYPYMYTFGGGTKLEIK ?
Reply: 0

Query: So what does the record say about percent blocking for 1035419 (antibody, V domains shown) VH: QVQLKQSGAELVRPGASVKLSCKTSGYIFTSYWIHWIKQRSGQGLEWIARIYPGTGSTYNNEKFKGKATLTADKSSSTAYMQLSSLKSEDSAVYFCARGEDNLYFYAMDYWGQGTSVTVSS VL: NIVLTQSPASLAVSLGQRATISCRASESVDSYGASFMHWCQQKPGQPPKLLIYLASNLESGVPARFSGSGSRTDFTLTIDPVEADDAATYYCQQNYEDPWTFGGGTKLEIK ?
Reply: 78.5
